- System: U2OS HRE-luciferase reporter, HIF pathway activation, luminescence
- ASSAY INFO: compounds inducing hypoxia-responsive transcription – cell-based, U2OS HRE-luc, luminescence, dry powder, set 2, dose response (AID 488805)
RESULT TYPE: AC50

SMILES STRING | AC50
C=CCNc1nc(-c2ccccn2)nnc1-c1ccccc1 | 8.3 µM
c1ccc(-c2nnc(-c3ccccn3)nc2NCC2CCCCC2)cc1 | 3.12 µM
Cc1ccc(CNc2nc(-c3ccccn3)nnc2-c2ccccc2)cc1 | 3.29 µM
O=C(NCCCCO)c1cc(-c2ccccc2)on1 | 10.5 µM
c1ccc(CNc2nc(-c3ccccn3)nnc2-c2ccccc2)cc1 | 7.03 µM
CN(C)c1nc(-c2ccccn2)nnc1-c1ccccc1 | 11.7 µM
O=C(NCCCN1CCOCC1)c1cc(-c2ccccc2)on1 | 9.51 µM
c1ccc(-c2nnc(-c3ccccn3)nc2N2CCC(N3CCOCC3)CC2)cc1 | 8.79 µM

The recorded AC50 with U2OS HRE-luciferase reporter, HIF pathway activation, luminescence for `c1ccc(-c2nnc(Nc3nc(-c4ccccn4)nnc3-c3ccccc3)s2)cc1` was 6.81 µM

Observed AC50, U2OS HRE-luciferase reporter, HIF pathway activation, luminescence, `CC(C)(C)CCNc1nc(-c2ccccn2)nnc1-c1ccccc1` : 2.59 µM

U2OS HRE-luciferase reporter, HIF pathway activation, luminescence assay, compound `c1ccc(-c2nnc(-c3ccccn3)nc2N2CCN(c3ccncc3)CC2)cc1` , recorded AC50 = 8.32 µM

Hey, U2OS HRE-luciferase reporter, HIF pathway activation, luminescence data for `c1ccc(-c2nnc(-c3ccccn3)nc2NCCN2CCOCC2)cc1` : AC50 came out at 18.1 µM

The value of AC50 recorded for `O=C(NCCCn1ccnc1)c1cc(-c2ccccc2)on1` when tested on U2OS HRE-luciferase reporter, HIF pathway activation, luminescence reads 8.16 µM

Summary line: `Cc1ccccc1CNc1nc(-c2ccccn2)nnc1-c1ccccc1` , U2OS HRE-luciferase reporter, HIF pathway activation, luminescence, reported AC50 = 6.05 µM

Sourced from PubChem BioAssay AID488805
